# Experiment description: Half life in simulated human serum in in vitro hollow-fiber PK model at 100 mg administered every 12 hrs
# Assay type: ADME, cell-free
# Condition set: in vitro hollow-fiber PK model simulating human serum
Outcome measure: half-life (h)
Give bare numbers, in h.

Suppose we examine the molecule CN(C)c1ccc(O)c2c1C[C@H]1C[C@H]3[C@H](N(C)C)C(O)=C(C(N)=O)C(=O)[C@@]3(O)C(O)=C1C2=O ; what half-life value has been reported?
12

* * *

# Experiment description: Cmax in simulated human serum in in vitro hollow-fiber PK model at 600 mg administered every 24 hrs by HPLC
# Type: ADME, organism-based
# Design: dose 600 mg
# Condition set: in vitro hollow-fiber PK model simulating human serum
Outcome measure: Cmax

Would you mind telling me what Cmax value was observed for CO[C@H]1/C=C/O[C@@]2(C)Oc3c(C)c(O)c4c(O)c(c(/C=N/N5CCN(C)CC5)c(O)c4c3C2=O)NC(=O)/C(C)=C\C=C\[C@H](C)[C@H](O)[C@@H](C)[C@@H](O)[C@@H](C)[C@H](OC(C)=O)[C@@H]1C ?
2000 ng/mL

* * *

# Experiment description: Tmax in simulated human serum in in vitro hollow-fiber PK model at 600 mg administered every 24 hrs
# Format: ADME, cell-free
# Condition set: in vitro hollow-fiber PK model simulating human serum
Outcome measure: Tmax (h)
Numbers only, in h.

For the compound CO[C@H]1/C=C/O[C@@]2(C)Oc3c(C)c(O)c4c(O)c(c(/C=N/N5CCN(C)CC5)c(O)c4c3C2=O)NC(=O)/C(C)=C\C=C\[C@H](C)[C@H](O)[C@@H](C)[C@@H](O)[C@@H](C)[C@H](OC(C)=O)[C@@H]1C [RIFAMPIN] , what Tmax is on record?
1.2

* * *

# Experiment description: Half life in simulated human serum in in vitro hollow-fiber PK model at 1 g administered every 12 hrs
# Assay type: ADME, cell-free
# Condition set: in vitro hollow-fiber PK model simulating human serum
Outcome measure: half-life (h)
One number for each entry, in h.

// half-life lookup, key: CN[C@H](CC(C)C)C(=O)N[C@H]1C(=O)N[C@@H](CC(N)=O)C(=O)N[C@H]2C(=O)N[C@H]3C(=O)N[C@H](C(=O)N[C@H](C(=O)O)c4cc(O)cc(O)c4-c4cc3ccc4O)[C@H](O)c3ccc(c(Cl)c3)Oc3cc2cc(c3O[C@@H]2O[C@H](CO)[C@@H](O)[C@H](O)[C@H]2O[C@H]2C[C@](C)(N)[C@H](O)[C@H](C)O2)Oc2ccc(cc2Cl)[C@H]1O [VANCOMYCIN]
6

* * *

# Experiment description: Tmax in simulated human serum in in vitro hollow-fiber PK model at 1 g administered every 12 hrs
# Assay type: ADME, cell-free
# Condition set: in vitro hollow-fiber PK model simulating human serum
Outcome measure: Tmax (h)
Answers are plain numbers, in h.

I have this molecule here, CN[C@H](CC(C)C)C(=O)N[C@H]1C(=O)N[C@@H](CC(N)=O)C(=O)N[C@H]2C(=O)N[C@H]3C(=O)N[C@H](C(=O)N[C@H](C(=O)O)c4cc(O)cc(O)c4-c4cc3ccc4O)[C@H](O)c3ccc(c(Cl)c3)Oc3cc2cc(c3O[C@@H]2O[C@H](CO)[C@@H](O)[C@H](O)[C@H]2O[C@H]2C[C@](C)(N)[C@H](O)[C@H](C)O2)Oc2ccc(cc2Cl)[C@H]1O [VANCOMYCIN] , and I need its recorded Tmax.
1

* * *

# Experiment description: Tmax in simulated human serum in in vitro hollow-fiber PK model at 100 mg administered every 12 hrs
# Assay type: ADME, cell-free
# Condition set: in vitro hollow-fiber PK model simulating human serum
Outcome measure: Tmax (h)
One number for each entry, in h.

Name the recorded Tmax for CN(C)c1ccc(O)c2c1C[C@H]1C[C@H]3[C@H](N(C)C)C(O)=C(C(N)=O)C(=O)[C@@]3(O)C(O)=C1C2=O .
2.3

* * *

# Experiment description: Half life in human serum
# Assay type: ADME, cell-free
Outcome measure: half-life (h)
One number for each entry, in h.

Which half-life is reported for this compound? CN(C)c1ccc(O)c2c1C[C@H]1C[C@H]3[C@H](N(C)C)C(O)=C(C(N)=O)C(=O)[C@@]3(O)C(O)=C1C2=O
12
